# System: HeLa cells
# test-summary: CCK-8 anti-proliferation assay, HeLa
# Type: cell-based, human
# condition-info: CCK-8, 48 h, mean ± SD, three independent experiments
# Procedure: Tumor cell anti-proliferation activities were determined by cell counting kit-8 (CCK-8) assay. MCF-7, A375, and HeLa cells were cultured in DMEM, HCT116 cells were cultured in McCoy's 5A medium, and DU145 and CT26 were cultured in RPMI 1640 with 10% FBS, 1% penicillin-streptomycin solution (10,000 U/mL penicillin and 10,000 μg/mL streptomycin) at 37 °C under 5% CO2. […] After 48 h, the cell viability was measured by CCK-8 assay. […]
measurement-type: IC50 (µM)
Kindly answer with a numeric value in µM, unit omitted.

Input: Item CCOC(=O)C1(n2cnc3c(N4CCC(N5CCOCC5)CC4)ncnc32)CSCC1O (single isomer, unassigned) [15b] : provide IC50
Output: 7.71

Input: Item CCOC(=O)C1(n2cnc3c(N4CCC(N5CCOCC5)CC4)ncnc32)CSCC1O (single isomer, unassigned) [15a] : provide IC50
Output: 13.7

Input: Item CCOC(=O)C1(n2cnc3c(N(C)C)ncnc32)CSCC1O (single isomer, unassigned) [4b] : provide IC50
Output: 12

Input: Item CCOC(=O)C1(n2cnc3c(N4CCOCC4)ncnc32)CSCC1O (single isomer, unassigned) [9b] : provide IC50
Output: 10.2

Input: Item CCOC(=O)C1(n2cnc3c(N4CCC(Cc5ccccc5F)CC4)ncnc32)CSCC1O (single isomer, unassigned) [17b] : provide IC50
Output: 17

Input: Item CCOC(=O)C1(n2cnc3c(N4CCC(C(F)(F)F)CC4)ncnc32)CSCC1O (single isomer, unassigned) [13a] : provide IC50
Output: 42

Input: Item CCOC(=O)C1(n2cnc3c(N4CCCCCC4)ncnc32)CSCC1O (single isomer, unassigned) [19a] : provide IC50
Output: 22.8

Input: Item CCCSc1nc(F)nc2c1ncn2C1(C(=O)OCC)CSCC1O (stereo not shown) [36a] : provide IC50
Output: 9.68

Input: Item CCOC(=O)C1(n2cnc3c(N4CCC(C)CC4)ncnc32)CSCC1O (single isomer, unassigned) [11b] : provide IC50
Output: 23.4

Input: Item CCOC(=O)C1(n2cnc3c(N4CCC(F)CC4)ncnc32)CSCC1O (single isomer, unassigned) [12a] : provide IC50
Output: 44.5

Input: Item CCCSc1ncnc2c1ncn2C1(C(=O)OCC)CSCC1O (single isomer, unassigned) [8b] : provide IC50
Output: 2.55

Input: Item CCCSc1nc(N)nc2c1ncn2C1(C(=O)OCC)CSCC1O (single isomer, unassigned) [35b] : provide IC50
Output: 8.49

Input: Item CCOC(=O)C1(n2cnc3c(N4CCC(Cl)CC4)ncnc32)CSCC1O (single isomer, unassigned) [14a] : provide IC50
Output: 12.1

Input: Item N.N.[Cl][Pt][Cl] [Cisplatin, cisplatin, reference compound] : provide IC50
Output: 11.2

Input: Item CCCSc1nc(Cl)nc2c1ncn2C1(C(=O)OCC)CSCC1O (single isomer, unassigned) [37b] : provide IC50
Output: 5.98

* * *

# System: HeLa cells
# test-summary: CCK-8 anti-proliferation assay, HeLa
# Type: cell-based, human
# condition-info: CCK-8, 48 h, mean ± SD, three independent experiments
Could you please report measured pIC50 for the items listed next?
Here pIC50 is given on a logarithmic scale as minus log10 of the concentration in mol/L.

Input: Item CCCSc1nc(Cl)nc2c1ncn2C1(C(=O)OCC)CSCC1O (single isomer, unassigned) [37a] : provide pIC50
Output: 5.80

Input: Item CCOC(=O)C1(n2cnc3c(N4CCCCCC4)ncnc32)CSCC1O (single isomer, unassigned) [19b] : provide pIC50
Output: 4.34

Input: Item CCOC(=O)C1(n2cnc3c(N(C)C)ncnc32)CSCC1O (single isomer, unassigned) [4a] : provide pIC50
Output: 5.01

Input: Item CCOC(=O)C1(n2cnc3c(N4CCCCC4)ncnc32)CSCC1O (single isomer, unassigned) [5a] : provide pIC50
Output: 5.58

Input: Item CCCSc1nc(N)nc2c1ncn2C1(C(=O)OCC)CSCC1O (single isomer, unassigned) [35a] : provide pIC50
Output: 5.03

Input: Item CCOC(=O)C1(n2cnc3c(N4CCSCC4)ncnc32)CSCC1O (single isomer, unassigned) [10b] : provide pIC50
Output: 4.99

Input: Item CCOC(=O)C1(n2cnc3c(N4CCC(C)CC4)ncnc32)CSCC1O (single isomer, unassigned) [11a] : provide pIC50
Output: 4.66

Input: Item CCOC(=O)C1(n2cnc3c(N4CCCCC4)nc(N)nc32)CSCC1O (single isomer, unassigned) [32a] : provide pIC50
Output: 5.27

Input: Item CCOC(=O)C1(n2cnc3c(N4CCCCC4)nc(Cl)nc32)CSCC1O (single isomer, unassigned) [34b] : provide pIC50
Output: 5.39

Input: Item CCOC(=O)C1(n2cnc3c(N4CCCCC4)nc(Cl)nc32)CSCC1O (single isomer, unassigned) [34a] : provide pIC50
Output: 5.31

Input: Item CCOC(=O)C1(n2cnc3c(N4CCCCC4)ncnc32)CSCC1O (single isomer, unassigned) [5b] : provide pIC50
Output: 5.34

Input: Item CCOC(=O)C1(n2cnc3c(N4CCC(Cl)CC4)ncnc32)CSCC1O (single isomer, unassigned) [14b] : provide pIC50
Output: 4.85

Input: Item CCOC(=O)C1(n2cnc3c(N4CCCC4)ncnc32)CSCC1O (single isomer, unassigned) [20b] : provide pIC50
Output: 4.92

* * *

# test-summary: Pharmacokinetic analysis
# Format: in vivo, Sprague–Dawley rats
# condition-info: male, Sprague-Dawley, plasma; rat, IV, 1 mg/kg; read-out: Vss
Could you please report measured Vd for the items listed next?
Kindly answer with a numeric value in L/kg, unit omitted.

Input: Item CCCSc1nc(F)nc2c1ncn2[C@@]1(C(=O)OCC)CSC[C@@H]1O (relative stereo) [36b] : provide Vd
Output: 3.54

Input: Item CCOC(=O)[C@]1(n2cnc3c(N4CCCCC4)nc(F)nc32)CSC[C@H]1O (racemic) [33a] : provide Vd
Output: 2.15

* * *

Could you please report measured IC50 for the items listed next?
# Test system: HeLa cells
# test-summary: CCK-8 anti-proliferation assay, HeLa
# Type: cell-based, human
# condition-info: Homo sapiens, HeLa, 48 h, CCK-8, 48 h, mean ± SD, three independent experiments
Kindly answer with a numeric value in µM, unit omitted.

Input: Item CCCCCSc1ncnc2c1ncn2[C@@]1(C(=O)OCC)CSC[C@H]1O (relative stereo) [26a] : provide IC50
Output: 6.07

Input: Item CCCCSc1ncnc2c1ncn2[C@@]1(C(=O)OCC)CSC[C@@H]1O (relative stereo) [25b] : provide IC50
Output: 6.32

Input: Item CCOC(=O)[C@]1(n2cnc3c(N4CCCCC4)nc(F)nc32)CSC[C@H]1O [33aa] : provide IC50
Output: 6.17

Input: Item CCOC(=O)[C@]1(n2cnc3c(Sc4ccc(C(C)(C)C)cc4)ncnc32)CSC[C@@H]1O (relative stereo) [29b] : provide IC50
Output: 15.1

Input: Item CCOC(=O)[C@]1(n2cnc3c(Sc4ccc(C(C)(C)C)cc4)ncnc32)CSC[C@H]1O (relative stereo) [29a] : provide IC50
Output: 21.2

Input: Item C#CCSc1ncnc2c1ncn2[C@@]1(C(=O)OCC)CSC[C@H]1O (relative stereo) [24a] : provide IC50
Output: 15.9

Input: Item CCOC(=O)[C@]1(n2cnc3c(SCCCF)ncnc32)CSC[C@@H]1O (relative stereo) [30b] : provide IC50
Output: 12.1

Input: Item CCOC(=O)[C@]1(n2cnc3c(SC)ncnc32)CSC[C@H]1O (relative stereo) [21a] : provide IC50
Output: 31

* * *

# System: HCT116 cells
# test-summary: CCK-8 anti-proliferation assay, HCT116
# Assay type: cell-based, human
# condition-info: Homo sapiens, HCT-116, 48 h, CCK-8, 48 h, mean ± SD, three independent experiments
Label Y when IC50 is strictly below 9 µM; at or above that, label N.

Input: Report whether reported IC50 is lower than 9 µM (strictly) for CCOC(=O)[C@]1(n2cnc3c(SCCCCl)ncnc32)CSC[C@@H]1O (relative stereo) [31b]
Output: N

Input: Report whether reported IC50 is lower than 9 µM (strictly) for CCOC(=O)[C@]1(n2cnc3c(Sc4cccc(F)c4)ncnc32)CSC[C@@H]1O (relative stereo) [28b]
Output: N

Input: Report whether reported IC50 is lower than 9 µM (strictly) for CCOC(=O)[C@]1(n2cnc3c(SCCCF)ncnc32)CSC[C@@H]1O (relative stereo) [30b]
Output: N

Input: Report whether reported IC50 is lower than 9 µM (strictly) for CCOC(=O)[C@]1(n2cnc3c(SC)ncnc32)CSC[C@@H]1O (relative stereo) [21b]
Output: N

Input: Report whether reported IC50 is lower than 9 µM (strictly) for CCOC(=O)[C@]1(n2cnc3c(N4CCCCC4)nc(F)nc32)CSC[C@H]1O (racemic) [33a]
Output: Y

Input: Report whether reported IC50 is lower than 9 µM (strictly) for CCOC(=O)[C@]1(n2cnc3c(SC)ncnc32)CSC[C@H]1O (relative stereo) [21a]
Output: N

Input: Report whether reported IC50 is lower than 9 µM (strictly) for CCOC(=O)[C@]1(n2cnc3c(SCCCCl)ncnc32)CSC[C@H]1O (relative stereo) [31a]
Output: N

Input: Report whether reported IC50 is lower than 9 µM (strictly) for CCOC(=O)[C@]1(n2cnc3c(Sc4cccc(F)c4)ncnc32)CSC[C@H]1O (relative stereo) [28a]
Output: N

Input: Report whether reported IC50 is lower than 9 µM (strictly) for O=c1[nH]cc(F)c(=O)[nH]1 [5-FU, 5-fluorouracil, reference compound]
Output: N

Input: Report whether reported IC50 is lower than 9 µM (strictly) for CCCCSc1ncnc2c1ncn2[C@@]1(C(=O)OCC)CSC[C@@H]1O (relative stereo) [25b]
Output: Y

Input: Report whether reported IC50 is lower than 9 µM (strictly) for CCOC(=O)[C@]1(n2cnc3c(Sc4ccc(C(C)(C)C)cc4)ncnc32)CSC[C@H]1O (relative stereo) [29a]
Output: Y

Input: Report whether reported IC50 is lower than 9 µM (strictly) for CCOC(=O)[C@]1(n2cnc3c(SCc4ccccc4)ncnc32)CSC[C@H]1O (relative stereo) [27a]
Output: N

Input: Report whether reported IC50 is lower than 9 µM (strictly) for CCOC(=O)[C@]1(n2cnc3c(Sc4ccc(C(C)(C)C)cc4)ncnc32)CSC[C@@H]1O (relative stereo) [29b]
Output: Y

Input: Report whether reported IC50 is lower than 9 µM (strictly) for CCOC(=O)[C@]1(n2cnc3c(SCC)ncnc32)CSC[C@H]1O (relative stereo) [22a]
Output: Y

Input: Report whether reported IC50 is lower than 9 µM (strictly) for CCOC(=O)[C@@]1(n2cnc3c(N4CCCCC4)nc(F)nc32)CSC[C@@H]1O
Output: Y

Input: Report whether reported IC50 is lower than 9 µM (strictly) for CCOC(=O)[C@]1(n2cnc3c(SCC)ncnc32)CSC[C@@H]1O (relative stereo) [22b]
Output: Y

Input: Report whether reported IC50 is lower than 9 µM (strictly) for CCCSc1nc(F)nc2c1ncn2[C@@]1(C(=O)OCC)CSC[C@@H]1O (relative stereo) [36b]
Output: Y

Input: Report whether reported IC50 is lower than 9 µM (strictly) for CCOC(=O)[C@]1(n2cnc3c(SC(C)C)ncnc32)CSC[C@H]1O (relative stereo) [23a]
Output: Y

Input: Report whether reported IC50 is lower than 9 µM (strictly) for CCOC(=O)[C@]1(n2cnc3c(SCCCF)ncnc32)CSC[C@H]1O (relative stereo) [30a]
Output: N

Input: Report whether reported IC50 is lower than 9 µM (strictly) for CCCCCSc1ncnc2c1ncn2[C@@]1(C(=O)OCC)CSC[C@@H]1O (relative stereo) [26b]
Output: N

Input: Report whether reported IC50 is lower than 9 µM (strictly) for C#CCSc1ncnc2c1ncn2[C@@]1(C(=O)OCC)CSC[C@@H]1O (relative stereo) [24b]
Output: Y

Input: Report whether reported IC50 is lower than 9 µM (strictly) for CCOC(=O)[C@]1(n2cnc3c(SC(C)C)ncnc32)CSC[C@@H]1O (relative stereo) [23b]
Output: Y

Input: Report whether reported IC50 is lower than 9 µM (strictly) for C#CCSc1ncnc2c1ncn2[C@@]1(C(=O)OCC)CSC[C@H]1O (relative stereo) [24a]
Output: Y

Input: Report whether reported IC50 is lower than 9 µM (strictly) for CCOC(=O)[C@]1(n2cnc3c(N4CCCCC4)nc(F)nc32)CSC[C@H]1O [33aa]
Output: Y

Input: Report whether reported IC50 is lower than 9 µM (strictly) for CCOC(=O)[C@]1(n2cnc3c(SCc4ccccc4)ncnc32)CSC[C@@H]1O (relative stereo) [27b]
Output: Y
